# System: HeLa Kyoto;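 note: HeLa Kyoto cells arrested at G1/S by double thymidine block, proteins quantified by TMT10plex mass spectrometry in mild NP-40 versus SDS extracts, three biological replicates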
# MEASUREMENT DESCRIPTION: solubility in G1/S (NP-40 vs SDS abundance) (log2 ratio); higher = more soluble
# EXPERIMENTAL CONTEXT: cell cycle stage: G1/S
Could you label it criterion met if measured solubility in G1/S (log2) is 0.09 or higher, and criterion not met otherwise?

{"SEQUENCE DATA": "MEQPGQDPTSDDVMDSFLEKFQSQPYRGGFHEDQWEKEFEKVPLFMSRAPSEIDPRENPDLACLQSIIFDEERSPEEQAKTYKDEGNDYFKEKDYKKAVISYTEGLKKKCADPDLNAVLYTNRAAAQYYLGNFRSALNDVTAARKLKPCHLKAIIRGALCHLELKHFAEAVNWCDEGLQIDAKEKKLLEMRAKADKLKRIEQRDVRKANLKEKKERNQNEALLQAIKARNIRLSEAACEDEDSASEGLGELFLDGLSTENPHGARLSLDGQGRLSWPVLFLYPEYAQSDFISAFHEDSRFIDHLMVMFGETPSWDLEQKYCPDNLEVYFEDEDRAELYRVPAKSTLLQVLQHQRYFVKALTPAFLVCVGSSPFCKNFLRGRKVYQIR [TTC4]", "CATEGORY LABEL": "criterion met"}
{"SEQUENCE DATA": "MRLGPRTAALGLLLLCAAAAGAGKAEELHYPLGERRSDYDREALLGVQEDVDEYVKLGHEEQQKRLQAIIKKIDLDSDGFLTESELSSWIQMSFKHYAMQEAKQQFVEYDKNSDDTVTWDEYNIQMYDRVIDFDENTALDDAEEESFRKLHLKDKKRFEKANQDSGPGLSLEEFIAFEHPEEVDYMTEFVIQEALEEHDKNGDGFVSLEEFLGDYRWDPTANEDPEWILVEKDRFVNDYDKDNDGRLDPQELLPWVVPNNQGIAQEEALHLIDEMDLNGDKKLSEEEILENPDLFLTSEATDYGRQLHDDYFYHDEL [RCN2]", "CATEGORY LABEL": "criterion not met"}
{"SEQUENCE DATA": "MCTKMEQPFYHDDSYTATGYGRAPGGLSLHDYKLLKPSLAVNLADPYRSLKAPGARGPGPEGGGGGSYFSGQGSDTGASLKLASSELERLIVPNSNGVITTTPTPPGQYFYPRGGGSGGGAGGAGGGVTEEQEGFADGFVKALDDLHKMNHVTPPNVSLGATGGPPAGPGGVYAGPEPPPVYTNLSSYSPASASSGGAGAAVGTGSSYPTTTISYLPHAPPFAGGHPAQLGLGRGASTFKEEPQTVPEARSRDATPPVSPINMEDQERIKVERKRLRNRLAATKCRKRKLERIARLEDKVKTLKAENAGLSSTAGLLREQVAQLKQKVMTHVSNGCQLLLGVKGHAF [JUNB]", "CATEGORY LABEL": "criterion not met"}
{"SEQUENCE DATA": "MTDGDYDYLIKLLALGDSGVGKTTFLYRYTDNKFNPKFITTVGIDFREKRVVYNAQGPNGSSGKAFKVHLQLWDTAGQERFRSLTTAFFRDAMGFLLMFDLTSQQSFLNVRNWMSQLQANAYCENPDIVLIGNKADLPDQREVNERQARELADKYGIPYFETSAATGQNVEKAVETLLDLIMKRMEQCVEKTQIPDTVNGGNSGNLDGEKPPEKKCIC [RAB27B]", "CATEGORY LABEL": "criterion not met"}
